- target of assay: Prostaglandin G/H synthase 2 (Homo sapiens)
- Sequence (P35354 whole entry): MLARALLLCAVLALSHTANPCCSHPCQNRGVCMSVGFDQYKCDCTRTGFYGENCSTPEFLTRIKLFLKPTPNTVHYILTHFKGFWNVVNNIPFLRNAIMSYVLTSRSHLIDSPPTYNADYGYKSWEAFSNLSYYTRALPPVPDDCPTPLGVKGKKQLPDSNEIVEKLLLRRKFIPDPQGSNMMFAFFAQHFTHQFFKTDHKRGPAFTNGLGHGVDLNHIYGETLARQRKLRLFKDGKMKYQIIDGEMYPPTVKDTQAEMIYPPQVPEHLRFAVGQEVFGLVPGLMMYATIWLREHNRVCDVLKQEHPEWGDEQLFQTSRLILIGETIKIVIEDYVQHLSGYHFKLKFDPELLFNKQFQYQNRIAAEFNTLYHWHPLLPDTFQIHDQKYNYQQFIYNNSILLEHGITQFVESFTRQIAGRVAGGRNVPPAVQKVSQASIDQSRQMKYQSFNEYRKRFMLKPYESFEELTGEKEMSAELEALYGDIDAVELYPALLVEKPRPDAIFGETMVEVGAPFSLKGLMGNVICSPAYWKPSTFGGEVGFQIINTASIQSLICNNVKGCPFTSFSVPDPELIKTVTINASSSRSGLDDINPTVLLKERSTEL
- protocol notes: Inhibition of recombinant human COX2 assessed as production of PGF2-alpha preincubated with compound followed by the addition of 5 uM arachidonic acid as substrate by enzyme immunoassay
pIC50: −log10 of the molar value.
property measured: pIC50

Input: Lab note: need pIC50 with Prostaglandin G/H synthase 2 (Homo sapiens) for entry CCCCCCNC(=O)Oc1ccccc1-c1ccc(C(C)C(=O)O)cc1F (racemic) , please look it up.
Output: < 4.00

* * *

- target of assay: Prostaglandin G/H synthase 1 (Ovis aries)
- Sequence (P05979 whole entry): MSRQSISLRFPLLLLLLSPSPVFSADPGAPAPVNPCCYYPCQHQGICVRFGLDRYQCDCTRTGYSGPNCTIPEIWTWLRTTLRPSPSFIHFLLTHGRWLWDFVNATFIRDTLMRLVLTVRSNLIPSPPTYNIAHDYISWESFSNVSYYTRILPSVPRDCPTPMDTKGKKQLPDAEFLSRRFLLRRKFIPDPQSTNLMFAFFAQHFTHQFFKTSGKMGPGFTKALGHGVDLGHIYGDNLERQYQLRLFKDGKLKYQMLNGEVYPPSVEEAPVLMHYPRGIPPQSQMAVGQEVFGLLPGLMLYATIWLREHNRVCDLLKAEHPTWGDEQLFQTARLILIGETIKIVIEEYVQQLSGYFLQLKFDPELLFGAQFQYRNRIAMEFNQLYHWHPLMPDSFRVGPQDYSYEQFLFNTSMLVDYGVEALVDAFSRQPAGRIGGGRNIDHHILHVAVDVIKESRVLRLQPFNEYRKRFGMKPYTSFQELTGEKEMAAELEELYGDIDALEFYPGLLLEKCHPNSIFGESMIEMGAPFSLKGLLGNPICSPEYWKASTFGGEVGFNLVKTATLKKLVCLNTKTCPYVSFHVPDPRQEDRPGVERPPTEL
- protocol notes: Inhibition of ovine COX1 assessed as production of PGF2-alpha preincubated with compound followed by the addition of 5 uM arachidonic acid as substrate by enzyme immunoassay
property measured: IC50 (nM)
Hi! Could you send only the number? It should be in nM, unit omitted.

CCCCCCNC(=O)Oc1cccc(-c2ccc(C(C)C(=O)O)cc2[N+](=O)[O-])c1 (racemic) = 130

Input: Quick one: IC50 of CC(C)NC(=O)Oc1cccc(-c2ccc(C(C)C(=O)O)cc2F)c1 (racemic) ?
Output: 3900

Input: Would you mind doing CCCCCCNC(=O)Oc1cccc(-c2ccc([C@@H](C)C(=O)O)cc2F)c1 as well?
Output: 4000

Input: Would you mind doing CCCCCCNC(=O)Oc1cccc(-c2ccc(C(C)C(=O)O)cc2N)c1 (racemic) as well?
Output: 220

* * *

In what follows, each item is paired with its IC50 for Fatty-acid amide hydrolase 1 (Rattus norvegicus, UniProt P97612).
Hi! Could you send only the number? It should be in nM, unit omitted.

CCCCCCCCNC(=O)Oc1cccc(-c2ccc(C(C)C(=O)O)cc2F)c1 (racemic) = 3
CCCCCCNC(=O)Oc1cccc(-c2ccc(C(C)C(=O)O)cc2Cl)c1 (racemic) = 23
CC(C)CNC(=O)Oc1cccc(-c2ccc(C(C)C(=O)O)cc2F)c1 (racemic) = 4100

Please examine the following record next.
Input: Quick one: IC50 of CCCCCCNC(=O)Oc1cccc(-c2ccc(C(C)C(=O)O)cc2O)c1 (racemic) ?
Output: 35

* * *

- target of assay: Prostaglandin G/H synthase 2 (Homo sapiens, UniProt P35354)
- protocol notes: Inhibition of recombinant human COX2 assessed as production of PGF2-alpha preincubated with compound followed by the addition of 5 uM arachidonic acid as substrate by enzyme immunoassay
Property: pIC50; scope: individual compounds
A value of pIC50 is the negative decimal logarithm of a concentration given in moles per litre.

Input: Lab note: need pIC50 with Prostaglandin G/H synthase 2 (Homo sapiens, UniProt P35354) for entry CCCCCCNC(=O)Oc1cccc(-c2ccc(C(C)C(=O)O)cc2N)c1 (racemic) , please look it up.
Output: 4.92

Input: Would you mind doing CCCCCCNC(=O)Oc1cccc(-c2ccc(C(C)C(=O)O)cc2)c1 (racemic) as well?
Output: 6.16

Input: Would you mind doing CCCCCCNC(=O)Nc1cccc(-c2ccc(C(C)C(=O)O)cc2F)c1 (racemic) as well?
Output: 6.25

Input: Would you mind doing CCCCCCNC(=O)Oc1cccc(-c2ccc(C(C)C(=O)O)cc2C(F)(F)F)c1 (racemic) as well?
Output: 6.70

* * *

- target of assay: Fatty-acid amide hydrolase 1 (Rattus norvegicus)
- Sequence (P97612 whole entry): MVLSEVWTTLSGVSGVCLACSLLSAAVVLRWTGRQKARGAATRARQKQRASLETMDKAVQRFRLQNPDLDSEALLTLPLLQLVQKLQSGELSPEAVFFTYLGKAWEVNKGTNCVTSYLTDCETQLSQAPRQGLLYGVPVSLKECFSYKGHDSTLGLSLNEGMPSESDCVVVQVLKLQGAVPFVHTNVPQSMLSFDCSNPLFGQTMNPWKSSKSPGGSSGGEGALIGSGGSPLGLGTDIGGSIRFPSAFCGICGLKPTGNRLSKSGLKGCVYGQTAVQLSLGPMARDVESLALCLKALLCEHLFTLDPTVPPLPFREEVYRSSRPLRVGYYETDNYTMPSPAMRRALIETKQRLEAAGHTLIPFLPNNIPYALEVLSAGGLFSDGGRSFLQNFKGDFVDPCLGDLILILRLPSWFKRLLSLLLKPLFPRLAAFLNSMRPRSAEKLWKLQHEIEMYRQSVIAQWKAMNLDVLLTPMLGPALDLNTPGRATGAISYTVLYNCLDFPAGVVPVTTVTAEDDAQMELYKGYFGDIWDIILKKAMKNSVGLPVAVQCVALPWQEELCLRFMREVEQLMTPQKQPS
Property: log10(IC50); scope: individual molecules
Hey, these are logged values: log10 of IC50, nM being the unit before logging.

Sample answers from the record:
CCCCCCNC(=O)Oc1cccc(-c2ccc(C(C)C(=O)O)cc2C(F)(F)F)c1 (racemic) = 0.70
CC(C(=O)O)c1ccc(-c2cccc(OC(=O)NC3CCC3)c2)c(F)c1 (racemic) = 4.69
CCCCCCNC(=O)Oc1cccc(-c2ccc(C(C)C(=O)O)cc2)c1 (racemic) = 0.48
CC(C(=O)O)c1ccc(-c2cccc(OC(=O)Nc3ccccc3)c2)c(F)c1 (racemic) = 4.61
CCCCCCNC(=O)Oc1cccc(-c2ccc(C(C)CO)cc2F)c1 (racemic) = 0.48
CCCCCCNC(=O)Oc1cccc(-c2ccc(C(C)C(=O)O)cc2N)c1 (racemic) = 1.69

Input: Quick one: log10(IC50) of CCCCCCNC(=O)Oc1cccc(-c2ccc(C(C)C(=O)O)cc2[N+](=O)[O-])c1 (racemic) ?
Output: 0.95

Input: Would you mind doing CCCCCCNC(=O)Nc1cccc(-c2ccc(C(C)C(=O)O)cc2F)c1 (racemic) as well?
Output: 4.95

Input: Would you mind doing CCCCCCNC(=O)Oc1cccc(-c2ccc(C(=O)O)cc2F)c1 as well?
Output: 1.93

Input: Would you mind doing CCCCCCNC(=O)Oc1ccc(-c2ccc(C(C)C(=O)O)cc2F)cc1 (racemic) as well?
Output: 1.83

Input: Would you mind doing CCCCCCNC(=O)Oc1cccc(-c2ccc(C)cc2F)c1 as well?
Output: 1.41

Input: Would you mind doing CCCCCCNC(=O)Oc1cccc(-c2ccc(C(C)C(=O)O)cc2C)c1 (racemic) as well?
Output: 1.00

Input: Would you mind doing CCCCCCNC(=O)Oc1cccc(-c2ccc(C(C)C(=O)OC)cc2F)c1 (racemic) as well?
Output: 1.72

* * *

- target of assay: Prostaglandin G/H synthase 2 (Homo sapiens)
- Sequence (P35354 whole entry): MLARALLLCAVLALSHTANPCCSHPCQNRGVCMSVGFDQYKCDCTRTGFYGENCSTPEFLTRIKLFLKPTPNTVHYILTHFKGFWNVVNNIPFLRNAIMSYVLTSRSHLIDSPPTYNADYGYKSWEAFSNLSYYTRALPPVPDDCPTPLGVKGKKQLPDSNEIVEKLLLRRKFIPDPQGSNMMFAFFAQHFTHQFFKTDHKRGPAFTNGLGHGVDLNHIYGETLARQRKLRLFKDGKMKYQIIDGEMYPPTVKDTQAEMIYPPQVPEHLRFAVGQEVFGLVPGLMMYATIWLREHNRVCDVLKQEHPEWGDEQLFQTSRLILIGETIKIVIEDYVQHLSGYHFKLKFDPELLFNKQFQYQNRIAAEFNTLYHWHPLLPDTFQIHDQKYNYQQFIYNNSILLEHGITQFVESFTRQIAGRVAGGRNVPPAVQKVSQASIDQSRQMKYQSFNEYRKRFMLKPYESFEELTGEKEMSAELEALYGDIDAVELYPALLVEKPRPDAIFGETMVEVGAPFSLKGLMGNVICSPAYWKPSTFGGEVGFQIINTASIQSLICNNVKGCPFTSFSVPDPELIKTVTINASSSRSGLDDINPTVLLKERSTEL
- protocol notes: Inhibition of recombinant human COX2 assessed as production of PGF2-alpha preincubated with compound followed by the addition of 5 uM arachidonic acid as substrate by enzyme immunoassay
property measured: IC50

Sample answers from the record:
CC(C(=O)O)c1ccc(-c2cccc(OC(=O)Nc3ccccc3)c2)c(F)c1 (racemic) = 2.7 µM
CCNC(=O)Oc1cccc(-c2ccc(C(C)C(=O)O)cc2F)c1 (racemic) = > 100 µM
CCCCCCNC(=O)Oc1cccc(-c2ccc(C(C)C(=O)O)cc2O)c1 (racemic) = 13 µM
CCCCCCNC(=O)Oc1ccc(-c2ccc(C(C)C(=O)O)cc2F)cc1 (racemic) = > 100 µM

Input: Quick one: IC50 of CCCCCCNC(=O)Oc1cccc(-c2ccc(C(C)C(=O)O)cc2Cl)c1 (racemic) ?
Output: 0.73 µM

Input: Would you mind doing NC(=O)c1cccc(-c2cccc(OC(=O)NC3CCCCC3)c2)c1 as well?
Output: > 100 µM

Input: Would you mind doing CC(C(=O)O)c1ccc(-c2cccc(OC(=O)NCCc3ccccc3)c2)c(F)c1 (racemic) as well?
Output: > 100 µM

Input: Would you mind doing CC(C)CNC(=O)Oc1cccc(-c2ccc(C(C)C(=O)O)cc2F)c1 (racemic) as well?
Output: > 100 µM

Input: Would you mind doing CC(C(=O)O)c1ccc(-c2cccc(OC(=O)NC3CC3)c2)c(F)c1 (racemic) as well?
Output: 74.3 µM

Input: Would you mind doing CC(C(=O)O)c1ccc(-c2cccc(OC(=O)NC3CCC3)c2)c(F)c1 (racemic) as well?
Output: > 100 µM
